system: JAK1/3 phosphorylation of its substrate, STAT5, at Y694; assay: JAK1/3 target modulation assay (IL-2 stimulated STAT5 Y694 phosphorylation in PBMC); type: cell-based; conditions: Homo sapiens, PBMC, Primary human peripheral blood mononuclear cells, IL-2 25 ng/mL; read-out: IL2-STAT5 Inh. IC50
Exercise: state measured IC50 for each of the compounds provided.

{"columns": ["COMPOUND", "VALUE_TYPE", "ENDPOINT_VALUE"],
 "data": [
  ["C=CC(=O)N1CCC[C@@H](Nc2ncnc3[nH]cc(C(C)C4CC4)c23)C1 (stereo partly shown) [Example 21]", "IC50", "> 1000 nM"],
  ["C/C=C/C(=O)N1C[C@H](Nc2ncnc3[nH]cc([C@@H]4CC4(F)F)c23)CC[C@@H]1C (single isomer, unassigned) [Example 58]", "IC50", "> 1000 nM"],
  ["C=CC(=O)N1CCC[C@@H](Nc2ncnc3[nH]cc(C(=O)OCC)c23)C1 [Example 1]", "IC50", "100 to 1000 nM"],
  ["C=CC(=O)N1CCC(Nc2cnc3[nH]cc(C(=O)C4CCC4)c3n2)CC1 [Example 100]", "IC50", "≤ 100 nM"],
  ["C/C=C/C(=O)N1C[C@H](Nc2ncnc3[nH]cc([C@H]4CC4(F)F)c23)CC[C@@H]1C (single isomer, unassigned) [Example 57]", "IC50", "> 1000 nM"],
  ["C[C@H]1CC[C@@H](Nc2ncnc3[nH]cc([C@H]4CC4(F)F)c23)CN1C(=O)/C=C/CN(C)C (single isomer, unassigned) [Example 60]", "IC50", "100 to 1000 nM"]
]}

# input Form field: IC50 recorded for C=CC(=O)N1C[C@H](Nc2ncnc3[nH]cc([C@@H]4C[C@H]4COC)c23)CC[C@@H]1C (single isomer, unassigned) [Example 45] with JAK1/3 phosphorylation of its substrate, STAT5, at Y694 (enter value)
# output ≤ 100 nM

###

target: ITK (Homo sapiens (Human))
Exercise: state measured IC50 for each of the compounds provided.

{"columns": ["COMPOUND", "ENDPOINT_VALUE"],
 "data": [
  ["C=CC(=O)N1CCC[C@@H](Nc2ncnc3[nH]cc([C@H]4C[C@@H]4COC)c23)C1 (single isomer, unassigned) [Example 25]", "≤ 0.01 µM"]
]}

Batch request: IC50 for each of the following compounds.
1. C=CC(=O)N1CCC(Nc2cnc3[nH]cc(C(=O)C4CCC4)c3n2)CC1
2. C=CC(=O)N1CCC[C@@H](Nc2ncnc3[nH]cc(C(=O)[C@H]4CCOC4)c23)C1 (single isomer, unassigned)

# output
1. 0.01 to 0.1 µM
2. 0.01 to 0.1 µM

# input Form field: IC50 recorded for C=CC(=O)N1CCC[C@@H](Nc2ccnc3[nH]cc(CC4CC4)c23)C1 with ITK (Homo sapiens (Human)) (enter value)
# output ≤ 0.01 µM

###

tested on: JAK1/3 phosphorylation of its substrate, STAT5, at Y694; assay: JAK1/3 target modulation assay (IL-2 stimulated STAT5 Y694 phosphorylation in PBMC); format: cell-based; conditions: Homo sapiens, PBMC, Primary human peripheral blood mononuclear cells, IL-2 25 ng/mL; read-out: IL2-STAT5 Inh. IC50
pIC50: −log10 of the molar value.
VALUE_TYPE: pIC50

{"columns": ["MOLECULE", "pIC50"],
 "data": [
  ["C=CC(=O)N1C[C@H](Nc2ncnc3[nH]cc(C4(C)CC4(F)F)c23)CC[C@@H]1C (stereo partly shown) [Example 50]", "6.00 to 7.00"],
  ["C=CC(=O)N1C[C@H](Nc2ncnc3[nH]cc([C@@H]4CC4(F)F)c23)CC[C@@H]1CC (single isomer, unassigned) [Example 68]", "≥ 7.00"],
  ["C=CC(=O)N1CCC[C@@H](Nc2ncnc3[nH]cc(C4CC4(F)F)c23)C1 (stereo partly shown) [Example 27]", "6.00 to 7.00"],
  ["C=CC(=O)N1CCC[C@@H](Nc2ncnc3[nH]cc(C(=O)C4CC4)c23)C1 [Example 5]", "< 6.00"],
  ["C=CC(=O)N1C[C@H](Nc2ccnc3[nH]cc([C@@H]4CC4(F)F)c23)CC[C@@H]1C (single isomer, unassigned) [Example 74]", "6.00 to 7.00"],
  ["C=CC(=O)N1C[C@H](Nc2ncnc3[nH]cc([C@H]4C[C@@H]4COC)c23)CC[C@@H]1C (single isomer, unassigned) [Example 46]", "6.00 to 7.00"]
]}

Now consider the entry below.
# input I am curious: what pIC50 value has been reported for C=CC(=O)N1CCC[C@@H](Nc2ccnc3[nH]cc(C(=O)CCOC)c23)C1 [Example 8] ?
# output < 6.00

###

biological target: JAK3 (Homo sapiens (Human))
Sequence (P52333 781-1124): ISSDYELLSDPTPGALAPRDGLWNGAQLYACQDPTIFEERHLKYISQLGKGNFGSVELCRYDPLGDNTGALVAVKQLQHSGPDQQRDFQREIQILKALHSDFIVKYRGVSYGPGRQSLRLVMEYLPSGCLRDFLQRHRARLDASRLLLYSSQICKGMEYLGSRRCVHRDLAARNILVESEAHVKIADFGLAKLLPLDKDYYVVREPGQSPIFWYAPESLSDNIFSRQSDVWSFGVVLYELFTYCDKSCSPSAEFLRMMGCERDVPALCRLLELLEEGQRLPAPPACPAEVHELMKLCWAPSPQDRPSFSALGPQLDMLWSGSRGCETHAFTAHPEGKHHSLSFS
VALUE_TYPE: IC50

{"columns": ["COMPOUND", "IC50"],
 "data": [
  ["C=CC(=O)N1C[C@H](Nc2ncnc3[nH]cc(C(=O)OCC)c23)CC[C@@H]1C [Example 2]", "≤ 10 nM"],
  ["C=CC(=O)N1C[C@@H](Nc2ncnc3[nH]cc([C@@H]4CC4(F)F)c23)CC[C@H]1CC (single isomer, unassigned) [Example 70]", "≤ 10 nM"],
  ["C=CC(=O)N1C[C@H](Nc2ncnc3[nH]cc(CC4CC4)c23)CC[C@@H]1C(C)C (single isomer, unassigned) [Example 43]", "> 100 nM"],
  ["C=CC(=O)N1C[C@H](Nc2ccnc3[nH]cc(C(=O)C4CC4)c23)CC[C@@H]1C [Example 34]", "≤ 10 nM"],
  ["C=CC(=O)N1C[C@H](Nc2ncnc3[nH]cc([C@H]4C[C@@H]4COC)c23)CC[C@@H]1C (single isomer, unassigned) [Example 46]", "≤ 10 nM"]
]}

Batch request: IC50 for each of the following compounds.
1. C=CC(=O)N1CCC(Nc2ccnc3[nH]cc(C(=O)C4CC4)c23)CC1 [Example 10]
2. C/C=C/C(=O)N1C[C@H](Nc2ncnc3[nH]cc([C@@H]4CC4(F)F)c23)CC[C@@H]1C (single isomer, unassigned) [Example 58]
3. C/C=C/C(=O)N1C[C@H](Nc2ncnc3[nH]cc([C@H]4CC4(F)F)c23)CC[C@@H]1C (single isomer, unassigned) [Example 57]

# output
1: > 100 nM; 2: > 100 nM; 3: > 100 nM

###

target: ITK (Homo sapiens (Human), UniProt Q08881)
Sequence (Q08881 whole entry): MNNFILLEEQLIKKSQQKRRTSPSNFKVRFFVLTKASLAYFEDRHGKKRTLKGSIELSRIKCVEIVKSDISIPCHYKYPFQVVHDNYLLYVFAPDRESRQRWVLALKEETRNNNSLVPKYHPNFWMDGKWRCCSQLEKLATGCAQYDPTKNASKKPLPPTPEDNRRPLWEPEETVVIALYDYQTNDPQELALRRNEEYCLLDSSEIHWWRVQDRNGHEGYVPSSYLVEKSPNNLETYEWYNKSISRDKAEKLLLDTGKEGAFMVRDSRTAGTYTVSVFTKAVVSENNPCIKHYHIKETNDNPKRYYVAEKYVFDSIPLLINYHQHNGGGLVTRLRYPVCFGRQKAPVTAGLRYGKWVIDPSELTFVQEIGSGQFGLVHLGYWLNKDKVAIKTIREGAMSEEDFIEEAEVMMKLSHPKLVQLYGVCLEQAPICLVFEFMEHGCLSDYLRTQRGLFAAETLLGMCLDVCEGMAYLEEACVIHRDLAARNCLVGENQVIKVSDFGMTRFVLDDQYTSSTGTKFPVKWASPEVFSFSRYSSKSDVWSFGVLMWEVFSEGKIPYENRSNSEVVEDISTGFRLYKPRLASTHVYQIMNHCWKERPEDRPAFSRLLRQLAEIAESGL
Exercise: state measured IC50 for each of the compounds provided.

{"columns": ["COMPOUND", "ENDPOINT_VALUE"],
 "data": [
  ["C=CC(=O)N1CCC[C@@H](Nc2ncnc3[nH]cc(C(=O)OCC)c23)C1", "≤ 10 nM"],
  ["C=CC(=O)N1CCC[C@@H](Nc2ncnc3[nH]cc(C(C)C4CC4)c23)C1 (some centres unmarked)", "> 100 nM"],
  ["C=CC(=O)N1C[C@@H](Nc2ncnc3[nH]cc(CC4CC4)c23)CC[C@H]1CC (single isomer, unassigned)", "≤ 10 nM"]
]}

Batch request: IC50 for each of the following compounds.
1. C=CC(=O)N1C[C@H](Nc2ncnc3[nH]cc(CC4CC4)c23)CC[C@@H]1C(C)C (single isomer, unassigned)
2. C=CC(=O)N1C[C@H](Nc2ncnc3[nH]cc([C@H]4C[C@@H]4COC)c23)CC[C@@H]1C (single isomer, unassigned)

# output
> 100 nM
≤ 10 nM

Batch request: IC50 for each of the following compounds.
1. C=CC(=O)N1C[C@H](Nc2ncnc3[nH]cc(C(=O)C4CCC4)c23)CC[C@@H]1C
2. C=CC(=O)N1C[C@H](Nc2ncnc3[nH]cc([C@H]4CC4(F)F)c23)CC[C@@H]1C(C)C (single isomer, unassigned)

# output
≤ 10 nM
> 100 nM

Batch request: IC50 for each of the following compounds.
1. C=CC(=O)N1C[C@H](Nc2ncnc3[nH]cc(C(=O)OCC(C)C)c23)CC[C@@H]1C
2. C=CC(=O)N1C[C@H](Nc2ncnc3[nH]cc([C@H]4CC4(F)F)c23)CC[C@@H]1C (single isomer, unassigned)
3. C=CC(=O)N1C[C@H](Nc2ccnc3[nH]cc([C@@H]4C[C@H]4COC)c23)CC[C@@H]1C (single isomer, unassigned)

# output
1: 10 to 100 nM; 2: ≤ 10 nM; 3: ≤ 10 nM

###

Exercise: state measured IC50 for each of the compounds provided.
tested on: JAK1/3 phosphorylation of its substrate, STAT5, at Y694; test: JAK1/3 target modulation assay (IL-2 stimulated STAT5 Y694 phosphorylation in PBMC); assay type: cell-based; conditions: Homo sapiens, PBMC, Primary human peripheral blood mononuclear cells, IL-2 25 ng/mL; read-out: IL2-STAT5 Inh. IC50

{"columns": ["COMPOUND", "TARGET_SYSTEM", "VALUE_TYPE", "ENDPOINT_VALUE"],
 "data": [
  ["C=CC(=O)N1C[C@H](Nc2ncnc3[nH]cc(C(=O)C4CCC4)c23)CC[C@@H]1C [Example 17]", "JAK1/3 phosphorylation of its substrate, STAT5, at Y694", "IC50", "100 to 1000 nM"],
  ["C=CC(=O)N1CCC(Nc2cnc3[nH]cc(C(=O)OCC)c3c2)CC1 [Example 96]", "JAK1/3 phosphorylation of its substrate, STAT5, at Y694", "IC50", "100 to 1000 nM"],
  ["C=CC(=O)N1C[C@@H](Nc2ncnc3[nH]cc(CC4CC4)c23)CC[C@H]1CC (single isomer, unassigned) [Example 39]", "JAK1/3 phosphorylation of its substrate, STAT5, at Y694", "IC50", "100 to 1000 nM"],
  ["C=CC(=O)N1C[C@H](Nc2ncnc3[nH]cc(C(=O)OC(C)(C)C)c23)CC[C@@H]1C [Example 31]", "JAK1/3 phosphorylation of its substrate, STAT5, at Y694", "IC50", "100 to 1000 nM"],
  ["C=CC(=O)N1CC(Nc2ncnc3[nH]cc(CC4CC4)c23)CCC1CC (stereo not shown) [Example 38]", "JAK1/3 phosphorylation of its substrate, STAT5, at Y694", "IC50", "100 to 1000 nM"]
]}

Batch request: IC50 for each of the following compounds.
1. C=CC(=O)N1C[C@H](Nc2ccnc3[nH]cc([C@H]4CC4(F)F)c23)CC[C@@H]1C (single isomer, unassigned) [Example 73]
2. C=CC(=O)N1C[C@H](Nc2ncnc3[nH]cc([C@H]4[C@H](C)C4(F)F)c23)CC[C@@H]1C (single isomer, unassigned) [Example 51]
3. C=CC(=O)N1C[C@H](Nc2ncnc3[nH]cc([C@@H]4CC4(F)F)c23)CC[C@@H]1C(C)C (single isomer, unassigned) [Example 64]

# output
["≤ 100 nM", "≤ 100 nM", "> 1000 nM"]
